Source of measurements: ChEMBL document CHEMBL3352791

# METHOD_SUMMARY: Safety index, ratio of IC50 for human MCF10A cells to EC50 for human DLD1 cells
# Assay type: toxicity, cell-based, MCF-10A
# TEST_CONTEXT: MCF10A cells versus DLD1 cells, read-out: Ratio IC50/EC50
Record form. Attribute: selectivity ratio. Fill in for each entry.
Numbers only.

CCN(CC)CCO/N=C(\c1ccc(SC)cc1)c1cccc2ccccc12.O=C(O)C(=O)O ... 1.2

Continue with the next molecule.
Query (molecule): O=c1[nH]cc(F)c(=O)[nH]1 [FLUOROURACIL] ; field requested: selectivity ratio 2.98

* * *

# Tested on: MCF7
# METHOD_SUMMARY: Antiproliferative activity against human ER-negative MCF7 cells after 24 hrs by MTT assay
# Type: functional, cell-based
# TEST_CONTEXT: Homo sapiens, MCF7, 24 h
Consider the following compounds; for each one, report its pEC50.
Give bare numbers, as −log10 of the molar value.

Example entries begin here.
COc1ccc(/C(=N\OCCN2CCCCC2)c2cccc3ccccc23)cc1 ... 4.74
COc1ccc(/C(=N\OCCN2CCCCCC2)c2cccc3ccccc23)cc1 ... 4.60
CCN(CC)CCO/N=C(\c1ccc(OC)cc1)c1cccc2ccccc12 ... 4.70
CCN(CC)C(=O)CO/N=C(\c1ccc(SC)cc1)c1cccc2ccccc12 ... 4.55

Alright, here's another compound for you.
Request body: readout pEC50, system MCF7, query CSc1ccc(/C(=N\OCCCN(C)C)c2cccc3ccccc23)cc1 . Return the value. 5.10

* * *

For each entry below, report its selectivity ratio value.
# METHOD_SUMMARY: in vitro
# TEST_CONTEXT: human, MCF10A cells versus

CCN(CC)CCO/N=C(\c1ccc(SC)cc1)c1cccc2ccccc12.O=C(O)C(=O)O ... 16.6
CSc1ccc(/C(=N\OCCCCN2CCCCC2)c2cccc3ccccc23)cc1 ... 1.2
CSc1ccc(/C(=N\OCCN2CCCC2)c2cccc3ccccc23)cc1 ... 1.1
CSc1ccc(/C(=N\OCCCN(C)C)c2cccc3ccccc23)cc1 ... 30

Here is the next item to consider.
Returns the measured selectivity ratio for the input molecule. Input: CSc1ccc(/C(=N\OCCCN2CCCCC2)c2cccc3ccccc23)cc1 2

* * *

# METHOD_SUMMARY: Cytotoxicity against human MCF10A cells after 72 hrs by MTT assay
# Format: ADME, cell-based
# TEST_CONTEXT: MCF-10A
VALUE_TYPE: pIC50
Answers are plain numbers, as −log10 of the molar value.

These solved cases illustrate the format of a correct answer.
CSc1ccc(/C(=N\OCCCN(C)C)c2cccc3ccccc23)cc1 ... 4.52
CSc1ccc(/C(=N\OCCN2CCCC2)c2cccc3ccccc23)cc1 ... 5.26
CSc1ccc(/C(=N\OCCCN2CCCCC2)c2cccc3ccccc23)cc1 ... 5.00

State the recorded pIC50 for every item in the following list.
1. CSc1ccc(/C(=N\OCCCCN2CCCCC2)c2cccc3ccccc23)cc1
2. CCN(CC)CCO/N=C(\c1ccc(SC)cc1)c1cccc2ccccc12.O=C(O)C(=O)O

[5.00, 4.30]

* * *

Would you kindly list selectivity ratio for each of these compounds?
# METHOD_SUMMARY: Safety index, ratio of IC50 for human MCF10A cells to EC50 for human ER-positive MDA-MB-231 cells
# TEST_CONTEXT: MCF10A cells versus
One number for each entry.

CCN(CC)CCO/N=C(\c1ccc(SC)cc1)c1cccc2ccccc12.O=C(O)C(=O)O ... 50
CSc1ccc(/C(=N\OCCN2CCCC2)c2cccc3ccccc23)cc1 ... 1.4
CSc1ccc(/C(=N\OCCCCN2CCCCC2)c2cccc3ccccc23)cc1 ... 0.5
CSc1ccc(/C(=N\OCCCN2CCCCC2)c2cccc3ccccc23)cc1 ... 0.5
CSc1ccc(/C(=N\OCCCN(C)C)c2cccc3ccccc23)cc1 ... 5.3

Alright, here's another compound for you.
Return reported selectivity ratio; argument: CC/C(=C(\c1ccc(O)cc1)c1ccc(OCCN(C)C)cc1)c1ccccc1 1.28

* * *

Kindly supply the reported pEC50 values for the records listed here.
# METHOD_SUMMARY: Antiproliferative activity against human DLD1 cells after 24 hrs by MTT assay
# Type: functional, cell-based
# TEST_CONTEXT: DLD-1, 24 h
Give bare numbers, as −log10 of the molar value.

O=c1[nH]cc(F)c(=O)[nH]1 [FLUOROURACIL] ... 4.79

Bench note: what pEC50 did CCN(CC)CCO/N=C(\c1ccc(SC)cc1)c1cccc2ccccc12.O=C(O)C(=O)O show? 4.81

* * *

# METHOD_SUMMARY: Safety index, ratio of IC50 for human MCF10A cells to EC50 for human SW620 cells
# Type: toxicity, cell-based, SW-620
# TEST_CONTEXT: MCF10A cells versus SW620 cells, read-out: Ratio IC50/EC50
VALUE_TYPE: selectivity ratio

O=c1[nH]cc(F)c(=O)[nH]1 ... 0.97

Now consider the entry below.
State the recorded selectivity ratio for this entry: CCN(CC)CCO/N=C(\c1ccc(SC)cc1)c1cccc2ccccc12.O=C(O)C(=O)O 2.2

* * *

What EC50 was measured for each of the following?
# Test system: MCF7
# METHOD_SUMMARY: Antiproliferative activity against human ER-negative MCF7 cells after 72 hrs by MTT assay
# Format: functional, cell-based
# TEST_CONTEXT: MCF7, 72 h

Examples with their reported EC50 follow.
CSc1ccc(/C(=N\OCCN2CCCC2)c2cccc3ccccc23)cc1 ... 5 µM
CSc1ccc(/C(=N\OCCCCN2CCCCC2)c2cccc3ccccc23)cc1 ... 8 µM
CCN(CC)CCO/N=C(\c1ccc(SC)cc1)c1cccc2ccccc12.O=C(O)C(=O)O ... 3 µM
CSc1ccc(/C(=N\OCCCN2CCCCC2)c2cccc3ccccc23)cc1 ... 5 µM

Shift focus to the following entry.
Report EC50 for CSc1ccc(/C(=N\OCCCN(C)C)c2cccc3ccccc23)cc1 please. 1 µM

* * *

Would you kindly list pEC50 for each of these compounds?
# Test system: MCF7
# METHOD_SUMMARY: Antiproliferative activity against human ER-negative MCF7 cells after 24 hrs by MTT assay
# Assay type: functional, cell-based
# TEST_CONTEXT: Homo sapiens, MCF7, 24 h
Give bare numbers, as −log10 of the molar value.

CC/C(=C(\c1ccc(O)cc1)c1ccc(OCCN(C)C)cc1)c1ccccc1 [AFIMOXIFENE] ... 5.06

Required: pEC50, one value per compound below.
1. COc1ccc(/C(=N\OCCCN(C)C)c2cccc3ccccc23)cc1
2. CSc1ccc(/C(=N\OCCCCNCCc2ccccc2)c2cccc3ccccc23)cc1
3. CSc1ccc(/C(=N\OCCN2CCCC2)c2cccc3ccccc23)cc1
4. O=C(c1ccc(OCCN2CCCCC2)cc1)c1c(-c2ccc(O)cc2)sc2cc(O)ccc12 [RALOXIFENE]
5. CSc1ccc(/C(=N\O)c2cccc3ccccc23)cc1
6. COc1ccc(/C(=N\OCCN(C(C)C)C(C)C)c2cccc3ccccc23)cc1

1. 4.69
2. 4.74
3. 5.18
4. 4.64
5. 4.74
6. 4.64

* * *

# Test system: MCF7
# METHOD_SUMMARY: Antiproliferative activity against human ER-negative MCF7 cells after 24 hrs by MTT assay
# Type: functional, cell-based
# TEST_CONTEXT: Homo sapiens, MCF7, 24 h
Assignment: determine reported EC50 for the given molecules.

Guide cases for EC50, answers given:
CSc1ccc(/C(=N\OCCN(C(C)C)C(C)C)c2cccc3ccccc23)cc1 ... > 50 µM
CSc1ccc(/C(=N\OCCCN2CCOCC2)c2cccc3ccccc23)cc1 ... > 50 µM

Turning now to a further record.
Request: EC50, test system MCF7, entry CCCCN(C)CCCO/N=C(\c1ccc(SC)cc1)c1cccc2ccccc12 > 50 µM
